Listed next: entries and their corresponding Ki.
Target: D(2) dopamine receptor (Homo sapiens)
Sequence (P14416 whole entry): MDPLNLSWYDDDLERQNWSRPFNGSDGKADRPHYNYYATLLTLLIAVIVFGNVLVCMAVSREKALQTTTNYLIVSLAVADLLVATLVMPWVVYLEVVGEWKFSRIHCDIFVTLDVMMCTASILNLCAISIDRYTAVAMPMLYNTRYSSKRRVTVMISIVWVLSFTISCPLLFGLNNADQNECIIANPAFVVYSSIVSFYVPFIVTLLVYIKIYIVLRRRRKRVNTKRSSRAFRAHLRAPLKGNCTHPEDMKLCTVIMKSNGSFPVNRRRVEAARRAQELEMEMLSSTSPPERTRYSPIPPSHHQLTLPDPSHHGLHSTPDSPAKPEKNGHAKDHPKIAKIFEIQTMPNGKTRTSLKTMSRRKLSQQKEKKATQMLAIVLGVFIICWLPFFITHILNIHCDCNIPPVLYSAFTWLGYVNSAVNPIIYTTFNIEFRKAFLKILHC
Experiment: Binding affinity towards human Dopamine receptor D2 (short) by [3H]-spiperone displacement.
Please state the figure in nM; there is no need to write the unit.

Some compounds with known Ki results, for comparison:
CNc1cc(OC)c(C(=O)NC[C@@H]2CN(Cc3ccccc3)C[C@@H]2C)cc1Cl 21
COc1ccc(Br)cc1C(=O)NC[C@@H]1CCN(Cc2ccccc2)C1 1600
COc1cc(N(C)C(C)=O)c(Cl)cc1C(=O)NC[C@@H]1CCN(Cc2ccccc2)C1 19000
COc1ccc(Br)cc1C(=O)NC[C@H]1CCN(Cc2ccccc2)C1 1500
CCC[C@H]1CN(Cc2ccccc2)C[C@H]1CNC(=O)c1cc(Cl)c(NC)cc1OC 28

IN: # query: Ki of entry "CCC[C@@H]1CN(Cc2ccccc2)C[C@H]1CNC(=O)c1cc(Cl)c(NC)cc1OC"
OUT: 24

IN: # query: Ki of entry "CCC[C@H]1CN(Cc2ccccc2)C[C@@H]1CNC(=O)c1cc(Cl)c(NC)cc1OC"
OUT: 540

IN: # query: Ki of entry "CNc1cc(OC)c(C(=O)NC[C@H]2CN(Cc3ccccc3)C[C@@H]2C)cc1Cl"
OUT: 120

----------
Biological target: D(3) dopamine receptor (Homo sapiens, UniProt P35462)
Sequence (P35462 whole entry): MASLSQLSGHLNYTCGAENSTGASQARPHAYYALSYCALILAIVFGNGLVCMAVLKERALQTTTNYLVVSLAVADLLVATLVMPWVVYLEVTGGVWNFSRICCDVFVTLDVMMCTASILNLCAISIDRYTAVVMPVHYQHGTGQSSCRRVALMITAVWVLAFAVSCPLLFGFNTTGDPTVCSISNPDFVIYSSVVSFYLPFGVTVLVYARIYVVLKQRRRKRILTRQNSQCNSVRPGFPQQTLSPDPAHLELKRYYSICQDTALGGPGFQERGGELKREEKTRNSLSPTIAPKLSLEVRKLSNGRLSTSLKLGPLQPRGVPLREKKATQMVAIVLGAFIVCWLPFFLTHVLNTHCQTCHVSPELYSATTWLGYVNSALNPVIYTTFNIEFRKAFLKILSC
REPORTED_METRIC: Ki (nM)
Please state the figure in nM; there is no need to write the unit.

Some molecules with known Ki results, for comparison:
COc1ccc(Br)cc1C(=O)NC[C@H]1CCN(Cc2ccccc2)C1 2100
CNc1cc(OC)c(C(=O)NC[C@H]2CN(Cc3ccccc3)C[C@H]2C)cc1Cl 110
CNc1cc(OC)c(C(=O)NC[C@H]2CCN(Cc3ccccc3)C2)cc1Cl 360
COc1cc(NC(C)=O)c(Cl)cc1C(=O)NC[C@@H]1CCN(Cc2ccccc2)C1 2700
COc1ccc(Br)cc1C(=O)NC[C@@H]1CCN(Cc2ccccc2)C1 1100
COc1cc(N)c(Cl)cc1C(=O)NC[C@@H]1CCN(Cc2ccccc2)C1 570
CCC[C@@H]1CN(Cc2ccccc2)C[C@@H]1CNC(=O)c1cc(Cl)c(NC)cc1OC 31
CCC[C@H]1CN(Cc2ccccc2)C[C@H]1CNC(=O)c1cc(Cl)c(NC)cc1OC 310

IN: # query: Ki of entry "COc1cc(NC(C)=O)c(Cl)cc1C(=O)NC[C@H]1CCN(Cc2ccccc2)C1"
OUT: 8700

IN: # query: Ki of entry "CCC[C@@H]1CN(Cc2ccccc2)C[C@H]1CNC(=O)c1cc(Cl)c(NC)cc1OC"
OUT: 270

----------
Molecular target: D(1A) dopamine receptor (Bos taurus)
Assay: Binding affinity towards bovine dopamine D1 receptor by [3H]-SCH- 23390 displacement.
Listed next: entries and their corresponding Ki.
Please state the figure in µM; there is no need to write the unit.

IN: State its Ki on D(1A) dopamine receptor (Bos taurus): "COc1ccc(Br)cc1C(=O)NC[C@H]1CCN(Cc2ccccc2)C1"
OUT: 5.2

IN: State its Ki on D(1A) dopamine receptor (Bos taurus): "CCC[C@@H]1CN(Cc2ccccc2)C[C@@H]1CNC(=O)c1cc(Cl)c(NC)cc1OC"
OUT: 2.8

IN: State its Ki on D(1A) dopamine receptor (Bos taurus): "COc1ccc(Br)cc1C(=O)NC[C@@H]1CCN(Cc2ccccc2)C1"
OUT: 3.7

IN: State its Ki on D(1A) dopamine receptor (Bos taurus): "COc1cc(NC(C)=O)c(Cl)cc1C(=O)NC[C@@H]1CCN(Cc2ccccc2)C1"
OUT: 35

IN: State its Ki on D(1A) dopamine receptor (Bos taurus): "CCC[C@@H]1CN(Cc2ccccc2)C[C@H]1CNC(=O)c1cc(Cl)c(NC)cc1OC"
OUT: 3.3

----------
Target: UniProtKB P14416
Assay: Binding affinity towards human Dopamine receptor D2 (long) by [3H]-spiperone displacement.
REPORTED_METRIC: Ki (µM)
Please state the figure in µM; there is no need to write the unit.

CCC[C@H]1CN(Cc2ccccc2)C[C@@H]1CNC(=O)c1cc(Cl)c(NC)cc1OC 0.98
CCC[C@H]1CN(Cc2ccccc2)C[C@H]1CNC(=O)c1cc(Cl)c(NC)cc1OC 0.045
COc1ccc(Br)cc1C(=O)NC[C@H]1CCN(Cc2ccccc2)C1 2
COc1cc(NC(C)=O)c(Cl)cc1C(=O)NC[C@@H]1CCN(Cc2ccccc2)C1 19
CNc1cc(OC)c(C(=O)NC[C@@H]2CN(Cc3ccccc3)C[C@@H]2C)cc1Cl 0.051

IN: # query: Ki of entry "COc1cc(N)c(Cl)cc1C(=O)NC[C@@H]1CCN(Cc2ccccc2)C1"
OUT: 1.4

----------
Biological target: D(2) dopamine receptor (Homo sapiens)
Assay: Binding affinity towards human Dopamine receptor D2 (short) by [3H]-spiperone displacement.
Listed next: entries and their corresponding pKi.
By convention, pKi is the negative base-10 log of a molar concentration.

COc1cc(N(C)C(C)=O)c(Cl)cc1C(=O)NC[C@H]1CCN(Cc2ccccc2)C1 4.55

IN: # query: pKi of entry "CNc1cc(OC)c(C(=O)NC[C@@H]2CCN(Cc3ccccc3)C2)cc1Cl"
OUT: 7.24

IN: # query: pKi of entry "CNc1cc(OC)c(C(=O)NC[C@@H]2CN(Cc3ccccc3)C[C@H]2C)cc1Cl"
OUT: 8.00

IN: # query: pKi of entry "CCC[C@@H]1CN(Cc2ccccc2)C[C@@H]1CNC(=O)c1cc(Cl)c(NC)cc1OC"
OUT: 6.72

IN: # query: pKi of entry "COc1cc(N)c(Cl)cc1C(=O)NC[C@@H]1CCN(Cc2ccccc2)C1"
OUT: 6.19

IN: # query: pKi of entry "CNc1cc(OC)c(C(=O)NC[C@H]2CCN(Cc3ccccc3)C2)cc1Cl"
OUT: 7.07

IN: # query: pKi of entry "COc1cc(NC(C)=O)c(Cl)cc1C(=O)NC[C@H]1CCN(Cc2ccccc2)C1"
OUT: 4.60

IN: # query: pKi of entry "CNc1cc(OC)c(C(=O)NC[C@H]2CN(Cc3ccccc3)C[C@H]2C)cc1Cl"
OUT: 7.10

IN: # query: pKi of entry "COc1cc(NC(C)=O)c(Cl)cc1C(=O)NC[C@@H]1CCN(Cc2ccccc2)C1"
OUT: 4.68

IN: # query: pKi of entry "COc1cc(N)c(Cl)cc1C(=O)NC[C@H]1CCN(Cc2ccccc2)C1"
OUT: 6.27

----------
Molecular target: D(1A) dopamine receptor (Bos taurus, UniProt Q95136)
Sequence (Q95136 whole entry): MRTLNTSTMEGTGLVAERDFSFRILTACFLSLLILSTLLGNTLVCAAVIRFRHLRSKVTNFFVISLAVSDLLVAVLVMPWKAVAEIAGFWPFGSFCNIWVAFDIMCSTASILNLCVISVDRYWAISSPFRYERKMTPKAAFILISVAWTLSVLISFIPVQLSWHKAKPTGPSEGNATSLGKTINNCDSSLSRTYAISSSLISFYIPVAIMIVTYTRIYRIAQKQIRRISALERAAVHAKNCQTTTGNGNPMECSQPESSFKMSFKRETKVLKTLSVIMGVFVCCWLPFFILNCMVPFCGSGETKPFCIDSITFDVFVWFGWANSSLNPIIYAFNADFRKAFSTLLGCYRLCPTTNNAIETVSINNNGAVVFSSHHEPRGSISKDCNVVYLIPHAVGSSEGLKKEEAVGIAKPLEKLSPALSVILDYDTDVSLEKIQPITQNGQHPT
Experiment: Binding affinity towards bovine dopamine D1 receptor by [3H]-SCH- 23390 displacement.
The label y is reserved for Ki strictly under 10 µM; n covers values equal to or above it.

MOLECULE	TESTED_TARGET	GROUP
COc1cc(N)c(Cl)cc1C(=O)NC[C@H]1CCN(Cc2ccccc2)C1	D(1A) dopamine receptor (Bos taurus, UniProt Q95136)	n
CNc1cc(OC)c(C(=O)NC[C@@H]2CCN(Cc3ccccc3)C2)cc1Cl	D(1A) dopamine receptor (Bos taurus, UniProt Q95136)	y
CNc1cc(OC)c(C(=O)NC[C@H]2CN(Cc3ccccc3)C[C@H]2C)cc1Cl	D(1A) dopamine receptor (Bos taurus, UniProt Q95136)	n
COc1cc(N(C)C(C)=O)c(Cl)cc1C(=O)NC[C@H]1CCN(Cc2ccccc2)C1	D(1A) dopamine receptor (Bos taurus, UniProt Q95136)	n
CCC[C@H]1CN(Cc2ccccc2)C[C@H]1CNC(=O)c1cc(Cl)c(NC)cc1OC	D(1A) dopamine receptor (Bos taurus, UniProt Q95136)	y

IN: I wonder whether "COc1cc(N(C)C(C)=O)c(Cl)cc1C(=O)NC[C@@H]1CCN(Cc2ccccc2)C1" has Ki below 10 µM. Can you tell?
OUT: n

IN: I wonder whether "CNc1cc(OC)c(C(=O)NC[C@@H]2CN(Cc3ccccc3)C[C@@H]2C)cc1Cl" has Ki below 10 µM. Can you tell?
OUT: n

IN: I wonder whether "CNc1cc(OC)c(C(=O)NC[C@H]2CN(Cc3ccccc3)C[C@@H]2C)cc1Cl" has Ki below 10 µM. Can you tell?
OUT: n

IN: I wonder whether "CNc1cc(OC)c(C(=O)NC[C@@H]2CN(Cc3ccccc3)C[C@H]2C)cc1Cl" has Ki below 10 µM. Can you tell?
OUT: n

IN: I wonder whether "CNc1cc(OC)c(C(=O)NC[C@H]2CCN(Cc3ccccc3)C2)cc1Cl" has Ki below 10 µM. Can you tell?
OUT: y

IN: I wonder whether "CCC[C@H]1CN(Cc2ccccc2)C[C@@H]1CNC(=O)c1cc(Cl)c(NC)cc1OC" has Ki below 10 µM. Can you tell?
OUT: y

IN: I wonder whether CCN1CCC[C@H]1CNC(=O)c1cc(S(N)(=O)=O)ccc1OC [LEVOSULPIRIDE] has Ki below 10 µM. Can you tell?
OUT: n

IN: I wonder whether "COc1cc(N)c(Cl)cc1C(=O)NC[C@@H]1CCN(Cc2ccccc2)C1" has Ki below 10 µM. Can you tell?
OUT: n

IN: I wonder whether "COc1cc(NC(C)=O)c(Cl)cc1C(=O)NC[C@H]1CCN(Cc2ccccc2)C1" has Ki below 10 µM. Can you tell?
OUT: n
